# Test system: K4 kissing-loop RNA reporter;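 also: bound reporter read as fluorescence of individual clusters on recovered sequencing chips by microscopy, with normalized cluster intensities fitted with a binding model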
# Run Description: apparent KD of K4 kissing-loop reporter; higher = weaker reporter binding
# Assay Conditions: Eterna round: R107; input ligand: theophylline 20 uM
I'd be grateful if you could share measured apparent KD of K4 kissing-loop reporter for these entries.
Answers are plain numbers, in µM.

Worked examples, 5 sequences total:
UGGAGUUGACGAAAAGUCAACUCCUGAGAAGGAGCGGACGAAAGUCCAGGUAGGUCGCUCACUACCAGUGAUGUUGGUACUUGAA: 0.428
GUAUGUGGAAACACGUACUUAUAUCCUCGACAGGAUAUGCGGAAACGCAGAAGGGUCGCCAACGAGUUUAUCCAGUGAUGUUGGA [Ex FMN A 15]: 0.335
ACGGCGCUGGAACCAGUAAUGGGAAGAAUGCGAGGACCGGUACGGCCGCCACUCGCUUCCAGUGAUGUUGGAAGUGAGCCAACAA [Geerzaedre]: 0.277
UAUUAAUUGUCAGGAUAUCGUAAUCGAGUGAUGUUCGAAUAUCGACGAUAGUCGAUAUUAUUUAUACGAGAAGGGACAUUAUUUA [JR_SSFMNB_Sub004]: 0.321
AAUAAUGGAGUGAUGUUCCAGUAAUGGGAUACCAGACAUGAAAAUGUCCCUUGGCAGCUCAAAGGUCUAGUGAUGUUAUAAAGAA [KL-SSTheo-A6]: 0.401

For each listed entry, give its apparent KD of K4 kissing-loop reporter.
1. CUGCCUCACUCGGCCGCCACUGUAUAAAUGUGACAGUGAUGUUGUCGUCGGAAAGGGCACUUAGGCAGGACCGGGAGUUUCAGGC [theeternabot_exclusion_KL_Trp_B_20]
2. CAAAUAAAUAUAAUUGAUAAGUGAUGUUGGCGAGGACCGGUACGGCCGCCACUCGAUAUCGGUCCAUUAACCGAGUGAUGUUUGG [Default title]
3. AAGCAGUCACUCGCAGCCAUCGAAGAUGGUCGAGGACCGGUACGGCCGCCACUCGGAGUGAUGUUCCGAAGACUGCAAAAUAAAA
4. GCCGUAGAUUGAAGGAGCGCCAUCUUACCAAGAGUGAUGUUCUUUGGUACCAUGUACAGCUGGCAGGUAGGUCGCAAUCUACGGC
5. UGAUAGGACAGAAGGAGCGGGAGUGAUGUUCCCAAAUGGAUAGGUCGACAAAGUCGACCCUCCCAGGUAGGUCGCUGUCCUAUCU [ArgBX 7 #SwitchBubble #StaticStem]
6. UUUUAAAUGUCUGAUACCAGAGAAAAUAUAUGUAGUGAUGUUAUAUACAAAUUUAAUAAGCUCCCUUGGCAGCAGUAUGAAUUUU [AstrosExc-TheB#12]
7. CAGCAUCAGGUUCAAACUGCAUGUACUGAUACCAGUCUUAAGAUCGACCCUUGGCAGCAGCUCCCGAGUGAUGUUCGUAGCGAGC [theeternabot_exclusion_KL_Theo_A_41]

Key:
1: 0.87; 2: 0.0674; 3: 0.325; 4: 0.181; 5: 0.247; 6: 0.784; 7: 0.401
